system: Escherichia coli; assay: Antimicrobial activity against Escherichia coli assessed as reduction in microbial growth; format: functional
Label Fulfilled when MIC is strictly below 10 µM; otherwise label Not fulfilled.

compound structure: O=C1S/C(=C\c2cnc(C(F)(F)F)nc2)C(=O)N1C(=O)c1ccccc1
system under test: Escherichia coli
assigned category: Not fulfilled
--
compound structure: O=C1S/C(=C\c2cnc(C(F)(F)F)nc2)C(=O)N1C(=O)c1ccc(O)cc1
system under test: Escherichia coli
assigned category: Not fulfilled
--
compound structure: O=C1S/C(=C\c2cnc(C(F)(F)F)nc2)C(=O)N1C(=O)c1ccc(Cl)cc1
system under test: Escherichia coli
assigned category: Not fulfilled
--
compound structure: O=C1S/C(=C\c2cnc(C(F)(F)F)nc2)C(=O)N1C(=O)c1ccc(C(F)(F)F)cc1
system under test: Escherichia coli
assigned category: Fulfilled
--
compound structure: CN[C@@H]1[C@H](O[C@H]2[C@H](O[C@H]3[C@H](O)[C@@H](O)[C@H](N=C(N)N)[C@@H](O)[C@@H]3N=C(N)N)O[C@@H](C)[C@]2(O)C=O)O[C@@H](CO)[C@H](O)[C@H]1O
system under test: Escherichia coli
assigned category: Not fulfilled
--
compound structure: O=C1S/C(=C\c2cnc(C(F)(F)F)nc2)C(=O)N1C(=O)c1cc(F)cc(F)c1
system under test: Escherichia coli
assigned category: Not fulfilled
--
compound structure: O=C1S/C(=C\c2cnc(C(F)(F)F)nc2)C(=O)N1C(=O)c1cc(F)c(F)c(F)c1
system under test: Escherichia coli
assigned category: Fulfilled
--
compound structure: Cc1ccc(C(=O)N2C(=O)S/C(=C\c3cnc(C(F)(F)F)nc3)C2=O)cc1
system under test: Escherichia coli
assigned category: Not fulfilled
